Reference source for all entries: paper PMC6386705

target: HuR RRM3 (human, UniProt Q15717 241-326); experiment: ITC
Sequence (Q15717 241-326): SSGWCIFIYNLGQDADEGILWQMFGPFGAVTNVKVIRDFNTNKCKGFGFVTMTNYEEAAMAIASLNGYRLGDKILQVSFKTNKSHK

Binder	Kd (µM)
AUUAUU (ssRNA)	5.75
